STUDY TARGET: Mitogen-activated protein kinase 12 (Homo sapiens) (UniProt P53778)
Sequence (P53778 whole entry): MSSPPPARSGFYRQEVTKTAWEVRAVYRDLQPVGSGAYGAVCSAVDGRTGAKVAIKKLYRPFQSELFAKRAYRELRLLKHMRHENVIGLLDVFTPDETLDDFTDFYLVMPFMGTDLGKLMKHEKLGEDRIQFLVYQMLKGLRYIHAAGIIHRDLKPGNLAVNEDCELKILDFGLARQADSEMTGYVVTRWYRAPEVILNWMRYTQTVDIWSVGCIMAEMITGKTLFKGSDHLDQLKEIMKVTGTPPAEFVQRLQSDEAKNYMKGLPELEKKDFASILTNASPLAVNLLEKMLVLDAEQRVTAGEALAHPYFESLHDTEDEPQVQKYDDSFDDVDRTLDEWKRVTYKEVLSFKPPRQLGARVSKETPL
TEST SETTINGS: at 0.1 µM
Description: GSK_PKIS: P38gamma mean inhibition at 0.1 uM [Nanosyn]
The following compounds are shown together with reported inhibition values.
MEASURED ATTRIBUTE: inhibition (%)

COMPOUND STRUCTURE: CCS(=O)(=O)c1ccc(OC)c(Nc2ncc(-c3ccccc3Cl)o2)c1
MEASURED ATTRIBUTE: inhibition
ENDPOINT UNIT: %
READOUT NUMBER: 5.31

COMPOUND STRUCTURE: CCC(=O)Nc1ccc(C)c(-c2ccc(C(=O)NCC3CC3)cc2)c1
MEASURED ATTRIBUTE: inhibition
ENDPOINT UNIT: %
READOUT NUMBER: 2.95

COMPOUND STRUCTURE: COc1cc2ncn(-c3cc(OCc4ccccc4C(F)(F)F)c(C(C)=O)s3)c2cc1OC
MEASURED ATTRIBUTE: inhibition
ENDPOINT UNIT: %
READOUT NUMBER: 2.87

COMPOUND STRUCTURE: O=C1NC(=O)C(c2cccc(Cl)c2)=C1Nc1ccc(Cl)c(C(=O)O)c1
MEASURED ATTRIBUTE: inhibition
ENDPOINT UNIT: %
READOUT NUMBER: 5.9

COMPOUND STRUCTURE: CN(C)CCOc1ccc(-c2cc(-c3ccc4c(c3)CCC4=NO)c(-c3ccncc3)o2)cc1
MEASURED ATTRIBUTE: inhibition
ENDPOINT UNIT: %
READOUT NUMBER: -0.25

COMPOUND STRUCTURE: CN1CCN(CCCNc2nc3ccc(Oc4ccc(NC(=O)Nc5cc(C(F)(F)F)ccc5F)cc4)cc3[nH]2)CC1
MEASURED ATTRIBUTE: inhibition
ENDPOINT UNIT: %
READOUT NUMBER: -0.38

COMPOUND STRUCTURE: Fc1ccc(-c2c(-c3ccncc3)nc3n2CCS3)cc1
MEASURED ATTRIBUTE: inhibition
ENDPOINT UNIT: %
READOUT NUMBER: 3.9

COMPOUND STRUCTURE: NS(=O)(=O)c1ccc(N/N=C2\C(=O)Nc3ccc(C(=O)NCCCn4ccnc4)cc32)cc1
MEASURED ATTRIBUTE: inhibition
ENDPOINT UNIT: %
READOUT NUMBER: 2.29

* * *

The following molecules are shown together with reported inhibition values.
STUDY TARGET: Tyrosine-protein kinase CSK (Homo sapiens);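 also: value given is the averaged percent inhibition of CSK kinase activity, from the GSK PKIS kinase inhibitor set screening panel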
TEST SETTINGS: at 0.1 µM

COMPOUND STRUCTURE: CN1CCN(CCCNc2nc3ccc(Oc4ccc(NC(=O)Nc5cc(C(F)(F)F)ccc5F)cc4)cc3[nH]2)CC1
inhibition [%]: -0.95
--
COMPOUND STRUCTURE: CN(C)CCCNc1nccc(-c2c(-c3ccc(F)cc3)nn3cc(C(F)(F)F)ccc23)n1
inhibition [%]: 2.44
--
COMPOUND STRUCTURE: COc1cc(C)c(N(C)C(=O)CN(C)C)cc1Nc1nc(Nc2cccc(F)c2C(N)=O)c2cc[nH]c2n1
inhibition [%]: 1.1
--
COMPOUND STRUCTURE: O=C(Nc1n[nH]c2cc(-c3cc(F)ccc3F)ccc12)C1CC1
inhibition [%]: 3.87
--
COMPOUND STRUCTURE: NS(=O)(=O)c1ccc(N/N=C2\C(=O)Nc3ccc(-c4cnco4)cc32)cc1
inhibition [%]: 2.16
